This section presents compounds with their documented composite z-score values.
TARGET_DESC: Pro-neuregulin-1, membrane-bound isoform (Homo sapiens) (UniProt Q02297)
Sequence (Q02297 whole entry, looked up, canonical isoform): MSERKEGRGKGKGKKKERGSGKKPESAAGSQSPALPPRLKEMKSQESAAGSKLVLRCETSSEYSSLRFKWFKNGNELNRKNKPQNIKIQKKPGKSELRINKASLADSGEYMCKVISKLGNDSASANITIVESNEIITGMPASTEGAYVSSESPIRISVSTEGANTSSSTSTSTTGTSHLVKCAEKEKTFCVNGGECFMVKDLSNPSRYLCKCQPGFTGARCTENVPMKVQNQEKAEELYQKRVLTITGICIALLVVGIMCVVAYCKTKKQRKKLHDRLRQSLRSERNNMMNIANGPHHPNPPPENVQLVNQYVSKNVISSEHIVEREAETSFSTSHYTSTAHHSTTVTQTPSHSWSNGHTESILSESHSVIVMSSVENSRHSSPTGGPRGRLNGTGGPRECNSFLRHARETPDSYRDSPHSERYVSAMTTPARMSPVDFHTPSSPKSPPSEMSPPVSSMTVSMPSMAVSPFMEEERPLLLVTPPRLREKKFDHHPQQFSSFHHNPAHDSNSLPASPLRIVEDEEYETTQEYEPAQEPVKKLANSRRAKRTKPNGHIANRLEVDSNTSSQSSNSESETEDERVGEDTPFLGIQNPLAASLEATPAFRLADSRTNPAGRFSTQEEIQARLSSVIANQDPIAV
PROTOCOL_DETAILS: NRG1 binders on small-molecule microarrays, primary screen, psychiatric disease protein project, biochemical, small-molecule microarray, fluorescence 635/667 (AID 1075);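 further: score combines 667 nm spot fluorescence with signal to noise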
ASSAY_SETUP: NRG1 binding, 635 nm fluorescence, higher = more signal
// return a plain number; no unit text

compound="COc1cc(CO)cc(I)c1O[C@H]1C=C(C(=O)NCCO)C[C@@H](N(CCN2CCOCC2)C(=O)C2CCCO2)[C@@H]1O (some centres undefined)" observed_result=-0.34
compound=C=CCN1C(=O)[C@@]2(O[C@@H](CCO)[C@H]([Si](C)(C)c3ccc(OC)cc3)[C@H]2C)c2cc(N3CCCCC3=O)ccc21 observed_result=1.12
compound=O=C(O)C1=CC[C@H]2C(=O)N(c3ccccc3)C(=O)[C@@H]12 observed_result=0.42
compound=[N-]=[N+]=NCc1ccccc1C[C@]1(C(=O)N2CCCCC2)COC(c2ccc(OCCCO)cc2)=N1 observed_result=1.13
compound=O=C1O[C@H](c2ccccc2)[C@H](c2ccccc2)N2[C@H]1[C@@H](C(=O)O)[C@]1(C(=O)Nc3ccc(C#CC4(O)CCCCCC4)cc31)[C@H]2c1ccccc1OCCO observed_result=0.278

[ask] Using the record for COc1cccc(C)c1NC(=O)O[C@H]1[C@H](OC(=O)Nc2ccc3c(c2)OCO3)[C@H](OC(=O)Nc2ccc3c(c2)OCO3)[C@@H](OC)O[C@@H]1CO , state its measured composite z-score.
[reply] 1.13

[ask] Using the record for COC(=O)[C@@]1(Cc2ccc(F)cc2)[C@H]2c3cc(C(=O)N4CCCC4)n(CCSCCO)c3C[C@H]2CN1C(=O)c1ccccc1 , state its measured composite z-score.
[reply] 1.82

[ask] Using the record for CCOC(=O)C1=C[C@@H](C(C)(C)C)N(S(=O)(=O)c2ccc(C)cc2)[C@H]1c1ccc(OC)cc1 , state its measured composite z-score.
[reply] 0.348
